Just for reference, ChEMBL document CHEMBL3507680 is where these values come from.

test: Human HepG2 cell viability assay in 384 well format; format: toxicity, cell-based; parameters: dose 125 nL, time 70.5 hour; concentration not given beside the values; conditions: HepG2 cells, read-out: Inhibition
MEASURED_PROPERTY: cytotoxicity at 70.5 h (%)

1. CCC(=O)N1CCC(Cc2nccnc2Nc2ccccn2)CC1 ... 20.4
2. CN1CCc2c(C#N)c(NCC3CCCO3)n3cnnc3c2C1 (centres undefined) ... -5.45
3. COc1cccc(OC2CN(C(=O)CCn3cnnn3)C2)c1 ... -10.5
4. O=C(CC1CCCO1)NCc1ccc(Br)cc1F (centres undefined) ... -5.9
5. CCn1cnnc1C1CCN(C(=O)c2cccc(N(C)C)c2)CC1 ... 1.66
6. Cc1ccc(CN2CC[C@H]3OCC[C@@]3(COCC(=O)N(C)C)C2)s1 ... 15.2
7. CC(C)c1cccc(-n2cc(O)c(C(=O)NCCCn3cccn3)n2)c1 ... -5.65
8. COCC(=O)Nc1ccc([C@@H](O)[C@H]2COCC(=O)N2C)cc1 ... -1.45
9. Cc1ncsc1CCN(C)C(=O)CN1CCCCC1=O ... 12.5
10. CCOC(C)C(=O)NCc1cccc(CN2CCCCCC2)c1 (centres undefined) ... -2.85
11. CCCC(=O)NC1CCN(c2ccccc2S(=O)(=O)CC)CC1 ... 17.6
12. CCCc1nc(CN2CCCC2Cn2cncn2)no1 (centres undefined) ... -6.08
13. CCC(C)(C)NC(=O)Cn1cc(C(N)=O)c(-c2ccccc2)n1 ... -7.28
14. O=S(=O)(CCO)Cc1ccc(OC(F)F)cc1 ... -5.07
15. CN(C)C(=O)CN1CCC2(CCN(C(=O)N3CCCC3)CC2)C1=O ... -3.29
16. CCC[C@@H]1CN(Cc2cnc(-c3cccs3)nc2)C[C@H]1C(=O)O ... -0.697
17. CCc1n[nH]c(C2CN(C(=O)CCc3cccs3)CCO2)n1 (centres undefined) ... 13.9
18. CSc1ncccc1C(=O)N1C[C@H]2CC[C@@H]1CN(c1cnccn1)C2 ... -10.6
19. CCC(CC)(CNC(=O)OC(C)(C)C)NC(=O)C1CCCO1 (centres undefined) ... -3.25
20. CN(CCn1nc2ccccn2c1=O)CC(=O)NC1CC1 ... -8.39
21. CC(C)C(NC(=O)c1ccccc1)C(=O)N1CCC2(CC1)OCCO2 (centres undefined) ... 17.2
22. N#CC1CCCN(c2nc(-c3ccccc3)nc3c2CCNCC3)C1 (centres undefined) ... 6.37
23. COc1cc(N2CCCC3(CCN(c4cncnc4)C3=O)C2)ncn1 (centres undefined) ... -7.92
24. CN(C)CC1CN(Cc2coc(-c3ccc(Cl)cc3)n2)CCO1 (centres undefined) ... 12.9

---

experiment: Human HepG2 cell viability assay in 384 well format; type: toxicity, cell-based; set-up: dose 125 nL, time 70.5 hour; concentration not given beside the values; conditions: HepG2 cells, read-out: Inhibition
Below, each entry is listed with its recorded cytotoxicity at 70.5 h.
MEASURED_PROPERTY: cytotoxicity at 70.5 h (%)

1. Cn1cc(C2CCCN2C(=O)CCCc2ccccn2)cn1 (configuration not stated) ... -7.85
2. CC(C)(C)c1noc(-c2nc3c([nH]2)CCCNC3=O)n1 ... -4.9
3. Cc1ccc(N2CCC3(CC2)COCCN(c2nccs2)C3)nn1 ... 2.35
4. Cc1cc(NCC(=O)N(C)Cc2cccs2)c(C(N)=O)cc1F ... 0.052
5. CCOC(=O)[C@H]1[C@@H](O)C(=O)N(C)C12CCN(C(=O)c1ccccc1)CC2 ... -2.45
6. Cc1nonc1OCCNC(=O)COc1ccc(F)cc1F ... -12.2
7. Cc1nc(C)n(CC2CCCN(CCOc3ccc(F)cc3)C2)n1 (configuration not stated) ... -3.5
8. CS(=O)(=O)Cc1cc(Cl)c2c(c1)OCCCO2 ... -3.38
9. COCCN(C)C[C@@H]1CCC[C@@H]2CN(c3ncccn3)C[C@@H]21 ... -0.79
10. Cc1cnn(CC2CCCCN2Cc2cnc(C)s2)c1 (configuration not stated) ... -12.5
11. CC(C)NC(=O)NC[C@H]1C[C@@H]2CCN1C[C@@H]2CN(C)c1ccccc1 ... -0.173
12. O=C(CCNC(=O)c1ccccc1F)NCCNc1cccnc1 ... 1.94
13. CCN(CC)S(=O)(=O)N(Cc1ccccn1)Cc1ccccc1C ... 43.2
14. O=C1CCN(C(=O)c2csc(-c3ccc(C(F)(F)F)cc3)n2)CCN1 ... -8.28
15. COc1ccccc1OC1CCN(C(=O)CCCn2ccnc2)CC1 ... -6.19
16. CCN(CCNC(=O)C1CCCN(C(C)=O)C1)c1ccccc1C (configuration not stated) ... -10.5
17. CN(C)C[C@]12COC[C@H]1CN(C(=O)Cc1ccc3c(c1)OCO3)C2 ... -9.79
18. CCc1nc2n(n1)CC(NCc1nc(C)c(C)o1)CC2 (configuration not stated) ... -5.85
19. Cc1ccc(OCC(=O)NC2(C#N)CCSCC2)cc1C ... -10.6
20. CCC1c2ccccc2CCN1CCCS(C)(=O)=O (configuration not stated) ... -3.06
21. CCCOC1CCCN(c2ncnc3c2CCN(C(=O)C2CC2)C3)C1 (configuration not stated) ... -7.75
22. COCCCn1c(CN2CCSCC2)cnc1S(=O)(=O)C1CCCC1 ... -2.29
23. CCCC1CCCN(C(=O)CCn2cccn2)CC1 (configuration not stated) ... 22.3
24. Clc1snnc1CN1CCOC(CNc2cccnn2)C1 (configuration not stated) ... -21.7
25. CC(O)C1CCN(Cc2cnc3c(-c4ccccc4)cnn3c2)CC1 (configuration not stated) ... -7.53
26. Cc1cccc(CN2C[C@@H]3COC[C@]3(COc3cccnc3)C2)n1 ... -120
27. CCCOc1ccc2ccccc2c1CN1CC[C@@]2(O)CCNC[C@H]2C1 ... -4.34
28. COc1ccc(-c2nnc([C@H]3CCN(C4CCC4)C3)o2)cc1 ... -0.264
29. Cc1cc(F)c(S(=O)(=O)NCCCN2CCC(O)CC2)cc1F ... 7.32
30. Cc1[nH]nc2ncc(C(=O)N3CCN(CC(C)C)CC3)cc12 ... 11.9
31. CC(C(=O)NCC1(c2c(F)cccc2F)CCCC1)S(C)(=O)=O (configuration not stated) ... -7.67
32. COCC1CN(C(=O)Cc2ccccn2)Cc2c1cnn2CC1CC1 (configuration not stated) ... -13.1
33. CCc1n[nH]c(C2CN(C(=O)c3ccnc(N(C)C)c3)CCO2)n1 (configuration not stated) ... 20.1
34. Cc1csc(CN2CC[C@H]3C[C@H](c4nnc(C)[nH]4)O[C@@H]3C2)n1 ... 20.1
35. CC(c1cc(F)ccc1F)N1CCN(Cc2nccn2C)CC1 (configuration not stated) ... 2.5
36. CN(C)C(=O)CO[C@@H]1CN(Cc2ccccc2)[C@@H]2CCCO[C@@H]21 ... 6.93
37. c1ccc(CCc2n[nH]c(CCN3CCCCC3)n2)cc1 ... -13.4
38. Cn1cc(S(=O)(=O)NCC2CCN(C(=O)Oc3ccccc3)CC2)cn1 ... 2.31
39. CCC(O)Cn1nc(CCSC)nc1-c1ccc2[nH]ccc2c1 (configuration not stated) ... 1.48
40. CS(=O)(=O)NCCC(=O)N1CCCC1c1noc(C2CC2)n1 (configuration not stated) ... -11.1
41. Cc1nccn1-c1cc(CNC(=O)c2ccccn2)ccn1 ... -4.56
42. CCc1noc(CNc2ccc(F)cc2OCC2CC2)n1 ... -7.55
43. COc1ccc(NC(=O)C(C)(C)C)cc1OCc1cccnc1 ... 3.3
44. NC(=O)NC(=O)CCn1ccc(-c2ccc(F)cc2)n1 ... -1.22
45. CCc1c(C)nc2cc(C3CCN(Cc4cccnc4)C3)nn2c1O (configuration not stated) ... -5.28
46. N#Cc1ccsc1N1CCC(Sc2ccncc2)C1=O (configuration not stated) ... -7.07
47. Cc1cc(C(=O)NCC(O)c2c(Cl)cccc2Cl)nn1C (configuration not stated) ... 71.4
